- Assayed system: TYK2 (Homo sapiens)
- Sequence (P29597 whole entry): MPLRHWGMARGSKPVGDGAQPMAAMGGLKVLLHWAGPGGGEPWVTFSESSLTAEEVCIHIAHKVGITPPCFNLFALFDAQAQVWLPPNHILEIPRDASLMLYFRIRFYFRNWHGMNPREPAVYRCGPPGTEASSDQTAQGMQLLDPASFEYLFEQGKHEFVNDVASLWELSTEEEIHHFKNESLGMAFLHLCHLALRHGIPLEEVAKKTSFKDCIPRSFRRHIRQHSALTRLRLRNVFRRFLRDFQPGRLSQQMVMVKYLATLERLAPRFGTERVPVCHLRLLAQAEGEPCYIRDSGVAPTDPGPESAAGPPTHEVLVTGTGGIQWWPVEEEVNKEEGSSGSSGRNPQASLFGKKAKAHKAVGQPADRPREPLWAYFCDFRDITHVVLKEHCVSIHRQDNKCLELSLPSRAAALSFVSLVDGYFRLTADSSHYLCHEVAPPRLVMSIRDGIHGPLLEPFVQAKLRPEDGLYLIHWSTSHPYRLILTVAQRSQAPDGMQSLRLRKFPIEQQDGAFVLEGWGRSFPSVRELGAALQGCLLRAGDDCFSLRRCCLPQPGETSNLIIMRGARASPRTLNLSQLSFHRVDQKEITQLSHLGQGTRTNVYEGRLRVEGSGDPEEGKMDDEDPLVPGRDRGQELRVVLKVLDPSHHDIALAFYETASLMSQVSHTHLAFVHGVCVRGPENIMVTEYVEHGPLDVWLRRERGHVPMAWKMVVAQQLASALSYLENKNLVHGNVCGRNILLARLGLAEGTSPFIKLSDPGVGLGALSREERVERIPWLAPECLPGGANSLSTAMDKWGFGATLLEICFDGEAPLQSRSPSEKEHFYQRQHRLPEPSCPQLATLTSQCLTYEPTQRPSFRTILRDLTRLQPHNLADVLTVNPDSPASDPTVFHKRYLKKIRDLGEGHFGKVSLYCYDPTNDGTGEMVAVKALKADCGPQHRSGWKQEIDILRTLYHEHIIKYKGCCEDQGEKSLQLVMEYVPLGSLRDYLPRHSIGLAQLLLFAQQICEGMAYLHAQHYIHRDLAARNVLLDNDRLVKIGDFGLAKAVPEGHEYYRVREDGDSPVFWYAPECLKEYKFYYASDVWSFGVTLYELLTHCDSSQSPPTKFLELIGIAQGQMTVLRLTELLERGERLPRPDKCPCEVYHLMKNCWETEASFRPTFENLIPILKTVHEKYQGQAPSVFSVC
- Protocol summary: Biochemical potency on Tyk2, TR-FRET LANCE Ultra kinase assay (examples 1-99)
- Run parameters: ATP at Km (12 μM), read-out: Tyk2 inhibitory activity (pIC50 class) (converted)
Recorded metric: IC50

Guide cases for IC50, answers given:
COc1ccc(Cl)cc1-n1nc(N)c2cnc(-c3cnn4cccnc34)cc21    5.01 to 50.1 nM
Cc1nn(-c2cc(S(=O)(=O)CCCN(C)C)ccc2OC(F)F)c2cc(-c3cnn4cccnc34)ncc12    > 50.1 nM
CNc1nn(-c2cc(Cl)ccc2OC)c2cc(-c3cnn4cccnc34)ncc12    5.01 to 50.1 nM
CSc1ccc(OC(F)F)c(-n2nc(NCCCN(C)C)c3cnc(-c4cnn5cccnc45)cc32)c1    5.01 to 50.1 nM
Cc1nn(-c2cc(Cl)ccc2SC(F)F)c2cc(-c3cnn4cccnc34)ncc12    5.01 to 50.1 nM

# batch size: 3; output IC50 per entry
1. COc1ccc(F)cc1-n1nc(C(=O)NCCCN(C)C)c2cnc(Nc3ncc[nH]c3=O)cc21
2. COc1ccc(Cl)cc1-n1ncc2c(NC(C)=O)nc(-c3cnn4cccnc34)cc21
3. Cc1nn(-c2cc(Cl)ccc2CO)c2cc(-c3cnn4cccnc34)ncc12

["5.01 to 50.1 nM", "> 50.1 nM", "> 50.1 nM"]

###

- Assayed system: JAK 3 (Homo sapiens, UniProt P52333)
- Sequence (P52333 1-1124): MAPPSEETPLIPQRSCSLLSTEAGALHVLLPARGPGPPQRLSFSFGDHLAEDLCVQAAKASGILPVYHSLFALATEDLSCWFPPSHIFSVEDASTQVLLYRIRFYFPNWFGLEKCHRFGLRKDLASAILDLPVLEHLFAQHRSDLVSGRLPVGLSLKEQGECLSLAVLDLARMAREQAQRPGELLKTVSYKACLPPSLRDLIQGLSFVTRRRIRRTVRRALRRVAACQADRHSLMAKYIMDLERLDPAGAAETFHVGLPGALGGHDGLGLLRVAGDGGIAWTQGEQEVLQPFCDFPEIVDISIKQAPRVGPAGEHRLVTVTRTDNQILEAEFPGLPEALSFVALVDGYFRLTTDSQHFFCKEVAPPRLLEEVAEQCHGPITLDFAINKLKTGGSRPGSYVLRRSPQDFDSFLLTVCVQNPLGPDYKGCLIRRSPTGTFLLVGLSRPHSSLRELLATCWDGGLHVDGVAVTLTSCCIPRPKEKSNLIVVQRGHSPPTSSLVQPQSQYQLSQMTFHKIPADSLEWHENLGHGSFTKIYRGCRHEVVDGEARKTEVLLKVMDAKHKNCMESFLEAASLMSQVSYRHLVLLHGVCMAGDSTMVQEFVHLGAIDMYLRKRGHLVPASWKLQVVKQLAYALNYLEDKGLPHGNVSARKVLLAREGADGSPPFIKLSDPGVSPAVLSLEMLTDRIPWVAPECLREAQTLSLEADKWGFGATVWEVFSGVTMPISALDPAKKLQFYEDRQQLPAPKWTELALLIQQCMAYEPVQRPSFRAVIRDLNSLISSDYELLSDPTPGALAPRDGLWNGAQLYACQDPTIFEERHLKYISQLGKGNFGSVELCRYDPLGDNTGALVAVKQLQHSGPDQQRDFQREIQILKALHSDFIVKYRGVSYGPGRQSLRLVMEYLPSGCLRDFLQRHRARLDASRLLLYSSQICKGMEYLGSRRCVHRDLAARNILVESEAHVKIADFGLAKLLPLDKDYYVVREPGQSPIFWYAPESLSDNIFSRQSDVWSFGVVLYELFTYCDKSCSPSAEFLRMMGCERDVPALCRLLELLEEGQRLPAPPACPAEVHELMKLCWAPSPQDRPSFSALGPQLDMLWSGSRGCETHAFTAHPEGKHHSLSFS
- Protocol summary: Biochemical potency on JAK3, TR-FRET LANCE Ultra kinase assay (examples 1-99)
- Run parameters: ATP at Km (0.2 μM), read-out: JAK3 inhibitory activity (pIC50 class) (converted)
Recorded metric: IC50

CNCc1nn(-c2cc(Cl)ccc2OC(F)F)c2cc(-c3cnn4cccnc34)ncc12    5.01 to 50.1 nM
O=C(c1nn(-c2cc(Cl)ccc2OC(F)F)c2cc(-c3cnn4cccnc34)ncc12)N1CCS(=O)(=O)CC1    5.01 to 50.1 nM
COc1cc(O)c(F)cc1-n1nc(C(=O)NCCCN(C)C)c2cnc(-c3cnn4cccnc34)cc21    5.01 to 50.1 nM
Cc1ccc(OC(F)F)c(-n2nc(C)c3cnc(-c4cnn5cccnc45)cc32)c1    ≤ 5.01 nM
COc1cc(O)c(F)cc1-n1nc(C)c2cnc(-c3cnn4cccnc34)cc21    ≤ 5.01 nM

Now look at this one.
May I ask what IC50 has been recorded for COc1ccc(S(=O)(=O)NCCO)cc1-n1nc(C)c2cnc(Nc3ncc[nH]c3=O)cc21 ? ≤ 5.01 nM

###

- Assayed system: TYK2 (Homo sapiens)
- Protocol summary: Biochemical potency on Tyk2, TR-FRET LANCE Ultra kinase assay (examples 1-99)
- Run parameters: ATP at Km (12 μM), read-out: Tyk2 inhibitory activity (pIC50 class) (converted)
Recorded metric: IC50

Guide cases for IC50, answers given:
COc1ccc(Cl)cc1-n1ncc2c(NCCNC(C)=O)nc(-c3cnn4cccnc34)cc21    > 0.0501 µM
COc1ccc(F)cc1-n1nc(NCCCN(C)C)c2cnc(Nc3ncc[nH]c3=O)cc21    0.00501 to 0.0501 µM
O=C(c1nn(-c2cc(Cl)ccc2OC(F)F)c2cc(-c3cnn4cccnc34)ncc12)N1CCS(=O)(=O)CC1    0.00501 to 0.0501 µM
CSc1ccc(OC(F)F)c(-n2nc(C(=O)NCCCN(C)C)c3cnc(-c4cnn5cccnc45)cc32)c1    0.00501 to 0.0501 µM

# batch size: 6; output IC50 per entry
1. COc1cc(O)c(F)cc1-n1nc(C(=O)NCCCN(C)C)c2cnc(-c3cnn4cccnc34)cc21
2. COc1ccc(S(=O)(=O)NCCCN2CCN(C)CC2)cc1-n1nc(C)c2cnc(-c3cnn4cccnc34)cc21
3. CCCS(=O)(=O)c1ccc(OC)c(-n2nc(C)c3cnc(-c4cnn5cccnc45)cc32)c1
4. COc1cnc(Cl)cc1-n1nc(C)c2cnc(-c3cnn4cccnc34)cc21
5. CNC(=O)CNc1nc(-c2cnn3cccnc23)cc2c1cnn2-c1cc(Cl)ccc1OC
6. COc1ccc(F)cc1-n1nc(C)c2cnc(-c3cnn4cccnc34)cc21

1. 0.00501 to 0.0501 µM
2. > 0.0501 µM
3. > 0.0501 µM
4. > 0.0501 µM
5. > 0.0501 µM
6. 0.00501 to 0.0501 µM

# batch size: 4; output IC50 per entry
1. Cc1nn(-c2cc(S(C)(=O)=O)ccc2OC(F)F)c2cc(Nc3ncc[nH]c3=O)ncc12
2. CNCc1nn(-c2cc(Cl)ccc2OC(F)F)c2cc(-c3cnn4cccnc34)ncc12
3. COc1ccc(S(C)(=O)=O)cc1-n1nc(C(=O)NCCCN(C)C)c2cnc(-c3cnn4cccnc34)cc21
4. COc1ccc(OC)c(-n2nc(C)c3cnc(-c4cnn5cccnc45)cc32)c1

1: 0.00501 to 0.0501 µM; 2: > 0.0501 µM; 3: > 0.0501 µM; 4: > 0.0501 µM

# batch size: 2; output IC50 per entry
1. N#CCc1nn(-c2cc(Cl)ccc2OC(F)F)c2cc(-c3cnn4cccnc34)ncc12
2. COc1cc(O)c(C)cc1-n1nc(C)c2cnc(-c3cnn4cccnc34)cc21

["0.00501 to 0.0501 µM", "0.00501 to 0.0501 µM"]

###

For each entry below, report its IC50 value.
- Assayed system: JAK 3 (Homo sapiens, UniProt P52333)
- Protocol summary: Biochemical potency on JAK3, TR-FRET LANCE Ultra kinase assay (examples 1-99)
- Run parameters: ATP at Km (0.2 μM), read-out: JAK3 inhibitory activity (pIC50 class) (converted)

Guide cases for IC50, answers given:
COc1ccc(S(C)(=O)=O)cc1-n1nc(NCCN2CCOCC2)c2cnc(-c3cnn4cccnc34)cc21 [Example 43]    5.01 to 50.1 nM
COc1ccc(F)cc1-n1nc(C(=O)NCCCN(C)C)c2cnc(-c3cnn4cccnc34)cc21 [Example 38]    5.01 to 50.1 nM
COc1ccc(S(C)(=O)=O)cc1-n1nc(C(=O)NCCCN(C)C)c2cnc(-c3cnn4cccnc34)cc21 [Example 83]    5.01 to 50.1 nM
COc1ccc(S(C)(=O)=O)cc1-n1nc(C(=O)NCCCN2CCOCC2)c2cnc(-c3cnn4cccnc34)cc21 [Example 84]    5.01 to 50.1 nM
COCCS(=O)(=O)c1ccc(OC(F)F)c(-n2nc(C)c3cnc(-c4cnn5cccnc45)cc32)c1 [Example 20]    ≤ 5.01 nM
Cc1nn(-c2cc(SC3CCNCC3)ccc2OC(F)F)c2cc(-c3cnn4cccnc34)ncc12 [Example 74]    5.01 to 50.1 nM
COc1ccc(Cl)cc1-n1nc(N2CCNCC2)c2cnc(-c3cnn4cccnc34)cc21 [Example 48]    5.01 to 50.1 nM
Cc1nn(-c2cc(Cl)ccc2O)c2cc(-c3cnn4cccnc34)ncc12 [Example 12]    5.01 to 50.1 nM
COc1ccc(F)cc1-n1nc(NCCCN(C)C)c2cnc(Nc3ncc[nH]c3=O)cc21 [Example 97]    ≤ 5.01 nM
CNCC(=O)Nc1nn(-c2cc(Cl)ccc2OC)c2cc(-c3cnn4cccnc34)ncc12 [Example 87]    5.01 to 50.1 nM

# batch size: 3; output IC50 per entry
1. COc1ccc(C(F)F)cc1-n1nc(NCCN(C)C)c2cnc(-c3cnn4cccnc34)cc21 [Example 44]
2. COc1cc(O)c(Cl)cc1-n1nc(C)c2cnc(-c3cnn4cccnc34)cc21 [Example 59]
3. COc1ccc(Cl)cc1-n1nc(C(=O)N[C@H]2C[C@@H](O)C2)c2cnc(-c3cnn4cccnc34)cc21 [Example 34]

1. 5.01 to 50.1 nM
2. ≤ 5.01 nM
3. 5.01 to 50.1 nM

# batch size: 3; output IC50 per entry
1. COc1ccc(Cl)cc1-n1nc(N2CC(CO)C2)c2cnc(-c3cnn4cccnc34)cc21 [Example 49]
2. Cc1nn(-c2cc(Cl)ccc2SC(F)F)c2cc(-c3cnn4cccnc34)ncc12 [Example 6]
3. COc1ccc(Cl)cc1-n1nc(C(=O)N[C@H]2C[C@H](N3CCOCC3)C2)c2cnc(-c3cnn4cccnc34)cc21 [Example 79]

1. 5.01 to 50.1 nM
2. ≤ 5.01 nM
3. 5.01 to 50.1 nM

# batch size: 6; output IC50 per entry
1. COc1ccc(S(=O)(=O)NCCN2CCN(C)CC2)cc1-n1nc(C)c2cnc(-c3cnn4cccnc34)cc21 [Example 18]
2. COc1ccc(Cl)cc1-n1nc(C)c2cnc(-c3cnn4cccnc34)cc21 [Example 2]
3. COc1ccc(S(=O)(=O)CCCO)cc1-n1nc(C)c2cnc(-c3cnn4cccnc34)cc21 [Example 9]
4. CNc1nn(-c2cc(S(C)(=O)=O)ccc2OC)c2cc(-c3cnn4cccnc34)ncc12 [Example 85]
5. COc1ccc(C(F)F)cc1-n1nc(C)c2cnc(-c3cnn4cccnc34)cc21 [Example 3]
6. COc1ccc(Cl)cc1-n1nc(N(C)C)c2cnc(-c3cnn4cccnc34)cc21 [Example 42]

> 50.1 nM
5.01 to 50.1 nM
5.01 to 50.1 nM
5.01 to 50.1 nM
5.01 to 50.1 nM
5.01 to 50.1 nM
